test_system: T1, human PD-1 (recombinant, titrated in BIAcore) (human, UniProt Q15116 25-170)
T1 construct: extracellular domain; also called recombinant human PD-1 extracellular domain
T1 sequence (Q15116 25-170): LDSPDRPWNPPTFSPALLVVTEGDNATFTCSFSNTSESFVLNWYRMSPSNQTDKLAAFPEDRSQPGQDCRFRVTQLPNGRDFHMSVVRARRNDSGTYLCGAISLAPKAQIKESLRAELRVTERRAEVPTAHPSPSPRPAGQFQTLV
protocol_summary: SPR BIAcore 3000; antibody captured by anti-human Fc, human PD-1 titrated;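 note: CM5 chip with amine-coupled goat anti-human Fc F(ab′)₂, HBS-EP running buffer at 10 µL/min, blank-surface-subtracted sensorgrams fitted in BIAevaluation 3.2 for kinetic constants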
readout: kon (M⁻¹ s⁻¹)
Give the quantity in M⁻¹ s⁻¹, number only.

Past entries and their recorded results:
binder | unit_tag | kon
949 VK3 gL11 gH1a (antibody, V domains shown, Humanised; human kappa constant (Km3)) VH: EVQLVQSGAEVKKPGASVKVSCKAFGYTFTTYPIEWMRQAHGQGLEWIGNFHPYNDDTKYNEKFKGRVTMTVDKSTTTVYMELSSLRSEDTAVYYCARENYGSHGGFVYWGQGTLVTVS VL: ENVLTQSPGTLSLSPGERATLSCRASSSVISSYLHWYQQKPGQAPRLWIYSTSNLASGVPDRFSGSGSGTSYTLTISRLEPEDFATYYCQQYNSYPLTFGGGTKVEIK | M⁻¹ s⁻¹ | 223000
949 VK1 gL11 gH1a (antibody, V domains shown, Humanised; human kappa constant (Km3)) VH: EVQLVQSGAEVKKPGASVKVSCKAFGYTFTTYPIEWMRQAHGQGLEWIGNFHPYNDDTKYNEKFKGRVTMTVDKSTTTVYMELSSLRSEDTAVYYCARENYGSHGGFVYWGQGTLVTVS VL: ENVLTQSPFSLSASVGDRVTITCRASSSVISSYLHWYQQKPAKAPKLWIYSTSNLASGVPDRFSGSGSGTSYTLTISSLQPEDFATYYCQQYNSYPLTFGGGTKVEIK | M⁻¹ s⁻¹ | 207000
949 VK3 gL1 gH1b (antibody, V domains shown, Humanised; human kappa constant (Km3)) VH: EVQLVQSGAEVKKPGSSVKVSCKAFGYTFTTYPIEWMRQAHGQGLEWIGNFHPYNDDTKYNEKFKGRVTITVDKSTTTVYMELSSLRSEDTAVYYCARENYGSHGGFVYWGQGTLVTVS VL: ENVLTQSPGTLSLSPGERATLSCRASSSVISSYLHWYQQKPGQAPRLWIYSTSNLASGVPDRFSGSGSGTSYTLTISRLEPEDFATYYCQQYNGYPLTFGGGTKVEIK | M⁻¹ s⁻¹ | 207000
949 VK1 gL1 gH1b (antibody, V domains shown, Humanised; human kappa constant (Km3)) VH: EVQLVQSGAEVKKPGSSVKVSCKAFGYTFTTYPIEWMRQAHGQGLEWIGNFHPYNDDTKYNEKFKGRVTITVDKSTTTVYMELSSLRSEDTAVYYCARENYGSHGGFVYWGQGTLVTVS VL: ENVLTQSPFSLSASVGDRVTITCRASSSVISSYLHWYQQKPAKAPKLWIYSTSNLASGVPDRFSGSGSGTSYTLTISSLQPEDFATYYCQQYNGYPLTFGGGTKVEIK | M⁻¹ s⁻¹ | 191000
949 VK3 gL1 gH1a (antibody, V domains shown, Humanised; human kappa constant (Km3)) VH: EVQLVQSGAEVKKPGASVKVSCKAFGYTFTTYPIEWMRQAHGQGLEWIGNFHPYNDDTKYNEKFKGRVTMTVDKSTTTVYMELSSLRSEDTAVYYCARENYGSHGGFVYWGQGTLVTVS VL: ENVLTQSPGTLSLSPGERATLSCRASSSVISSYLHWYQQKPGQAPRLWIYSTSNLASGVPDRFSGSGSGTSYTLTISRLEPEDFATYYCQQYNGYPLTFGGGTKVEIK | M⁻¹ s⁻¹ | 210000

Moving on to the next binder.
q: Report kon for 949 VK1 gL1 gH1a (antibody, V domains shown, Humanised; human kappa constant (Km3); Heavy V regions were cloned into gamma-4P (S241P), gamma-4P delta Lys and gamma-1 delta Lys vectors) VH: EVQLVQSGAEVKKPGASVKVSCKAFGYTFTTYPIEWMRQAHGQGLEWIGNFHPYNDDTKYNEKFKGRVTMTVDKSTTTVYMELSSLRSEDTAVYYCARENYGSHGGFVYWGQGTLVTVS VL: ENVLTQSPFSLSASVGDRVTITCRASSSVISSYLHWYQQKPAKAPKLWIYSTSNLASGVPDRFSGSGSGTSYTLTISSLQPEDFATYYCQQYNGYPLTFGGGTKVEIK
a: 211000
